- System: spontaneously hypertensive rats
- Test summary: Antihypertensive activity: systolic blood pressure measured indirectly on conscious SHR after peroral dosing
- Format: in vivo, rat
- Conditions used: SHR (male, 13 months, 2 per sample), before 35 mg/kg peroral single dose

{"Compound": "C[C@H](NP(=O)(CCc1ccccc1)OCc1ccccc1)C(=O)N1CCC[C@H]1C(=O)N1CCC[C@H]1C(=O)[O-].[Na+] (stereo partly drawn)", "Systolic Blood Pressure, Pretreatment (mm Hg)": 194}
{"Compound": "COC(=O)[C@@H]1CCCN1C(=O)[C@@H]1CCCN1C(=O)[C@H](C)NP(=O)([O-])CCc1ccccc1.[Na+]", "Systolic Blood Pressure, Pretreatment (mm Hg)": 193}
{"Compound": "CSCC[C@H](NP(=O)(OCc1ccccc1)OCc1ccccc1)C(=O)N1CCC[C@H]1C(=O)N1CCC[C@H]1C(=O)O.N=C(N)NCCC[C@H](N)C(=O)O", "Systolic Blood Pressure, Pretreatment (mm Hg)": 186}
{"Compound": "CCOP(=O)(CCc1ccccc1)N[C@@H](C)C(=O)N1CCC[C@H]1C(=O)N1CCC[C@H]1C(=O)[O-].[Na+] (stereo partly drawn)", "Systolic Blood Pressure, Pretreatment (mm Hg)": 195}
{"Compound": "C[C@H](NP(=O)(OCc1ccccc1)OCc1ccccc1)C(=O)N1CCC[C@H]1C(=O)N[C@@H](CCCNC(=N)N)C(=O)O", "Systolic Blood Pressure, Pretreatment (mm Hg)": 181}
{"Compound": "C[C@H](NP(=O)(OCc1ccccc1)OCc1ccccc1)C(=O)N1CCC[C@H]1C(=O)NCC(=O)O.N=C(N)NCCC[C@H](N)C(=O)O", "Systolic Blood Pressure, Pretreatment (mm Hg)": 212}
{"Compound": "C[C@H](NP(=O)(O)OCc1ccccc1)C(=O)N1CCC[C@H]1C(=O)N1CCC[C@H]1C(=O)O.C[C@H](NP(=O)(O)OCc1ccccc1)C(=O)N1CCC[C@H]1C(=O)N1CCC[C@H]1C(=O)O.N.N", "Systolic Blood Pressure, Pretreatment (mm Hg)": 195}
{"Compound": "C[C@H](NP(=O)(CCc1ccccc1)OCc1ccccc1)C(=O)N1CCC[C@H]1C(=O)N1CCC[C@H]1C(=O)OCc1ccccc1 (stereo partly drawn)", "Systolic Blood Pressure, Pretreatment (mm Hg)": 182}
{"Compound": "C[C@H](NP(=O)(OCc1ccccc1)OCc1ccccc1)C(=O)N1CCC[C@H]1C(=O)N1CCC[C@H]1C(=O)O", "Systolic Blood Pressure, Pretreatment (mm Hg)": 219}
{"Compound": "COP(=O)(CCc1ccccc1)N[C@@H](CCSC)C(=O)N1CCC[C@H]1C(=O)N1CCC[C@H]1C(=O)O.NC(N)=NCCC[C@H](N)C(=O)O (stereo partly drawn)", "Systolic Blood Pressure, Pretreatment (mm Hg)": 203}
{"Compound": "C[C@H](NP(=O)(O)CCc1ccccc1)C(=O)N(CC(=O)N1CCC[C@H]1C(=O)[O-])C1Cc2ccccc2C1.C[C@H](NP(=O)(O)CCc1ccccc1)C(=O)N(CC(=O)N1CCC[C@H]1C(=O)[O-])C1Cc2ccccc2C1.[Na+].[Na+]", "Systolic Blood Pressure, Pretreatment (mm Hg)": 203}
{"Compound": "O=C(O)CC[C@H](NP(=O)(OCc1ccccc1)OCc1ccccc1)C(=O)N1CCC[C@H]1C(=O)N1CCC[C@H]1C(=O)O", "Systolic Blood Pressure, Pretreatment (mm Hg)": 206}
{"Compound": "N=C(N)NCCC[C@H](NP(=O)(Cc1ccccc1)Cc1ccccc1)C(=O)N1CCC[C@H]1C(=O)N1CCC[C@H]1C(=O)O", "Systolic Blood Pressure, Pretreatment (mm Hg)": 191}
{"Compound": "NCCCC[C@H](NP(=O)(O)CCc1ccccc1)C(=O)N1CCC[C@H]1C(=O)N1CCC[C@H]1C(=O)[O-].NCCCC[C@H](NP(=O)(O)CCc1ccccc1)C(=O)N1CCC[C@H]1C(=O)N1CCC[C@H]1C(=O)[O-].[Na+].[Na+]", "Systolic Blood Pressure, Pretreatment (mm Hg)": 200}
{"Compound": "CCOP(=O)(CCc1ccccc1)N[C@@H](CCCCN)C(=O)N1CCC[C@H]1C(=O)N1CCC[C@H]1C(=O)O.NC(N)=NCCC[C@H](N)C(=O)O (stereo partly drawn)", "Systolic Blood Pressure, Pretreatment (mm Hg)": 201}
{"Compound": "CCCCCP(=O)(O)N[C@@H](C)C(=O)N1CCC[C@H]1C(=O)N1CCC[C@H]1C(=O)[O-].CCCCCP(=O)(O)N[C@@H](C)C(=O)N1CCC[C@H]1C(=O)N1CCC[C@H]1C(=O)[O-].[Na+].[Na+]", "Systolic Blood Pressure, Pretreatment (mm Hg)": 187}
{"Compound": "CCOP(=O)(CCc1ccccc1)N[C@@H](CCSC)C(=O)N1CCC[C@H]1C(=O)N1CCC[C@H]1C(=O)O.NC(N)=NCCC[C@H](N)C(=O)O (stereo partly drawn)", "Systolic Blood Pressure, Pretreatment (mm Hg)": 196}
{"Compound": "CSCC[C@H](NP(=O)(CCc1ccccc1)OCc1ccccc1)C(=O)N1CCC[C@H]1C(=O)N1CCC[C@H]1C(=O)O.NC(N)=NCCC[C@H](N)C(=O)O (stereo partly drawn)", "Systolic Blood Pressure, Pretreatment (mm Hg)": 191}
